Tested on: R. radiobatter ATCC 15955
assayProtocol: Growth inhibition assay (MIC)
Format: cell-based, Rhizobium radiobacter
details: multidrug resistant strain; 1% TSB, 37° C., 20 hrs
Where no end group is shown, it is not given here.
assayMetric: MIC R. radiobatter ATCC 15955 (µg/mL)

1. KNNRPVYIPKPRPPHPRL-NH2 [compound 21] : 0.65
2. H-GNNRPVYLPQPRPPHPRI-NH2 [compound 26] : 2.6
3. GNNRPVYIPKPRPPHPRI-NH2 [compound 17] : 0.65
4. GNNRPVYIPRPRPPHPRLV-NH2 [compound 25] : 0.65

* * *

assayProtocol: in vitro
Format: in vitro ADME, mouse
details: 25% aqueous mouse serum, 37° C.; read-out: Half-life time
Where no end group is shown, it is not given here.
assayMetric: half-life at 0.061 mg/mL (h)

1. GNNRPVYIPQPRPPHPRPIRV-NH2 [compound 110] : 6
2. GNNRPVYIPQPRPPHPRL [compound 2] : 2
3. GNNRPVYIPQPRPPHPRI-NH2 [compound 4] : 0.25
4. GNNRPVYIPQPRPPHPRI [compound 1] : 2
5. GNNRPVYIPQPRPPHPRL-NH2 [compound 6] : 0.25

* * *

The substances listed here are annotated with their MIC K. pneumonia 681.
Test system: K. pneumonia 681
Assay type: cell-based, Klebsiella pneumoniae
details: 1% TSB, 37° C., 20 hrs
[ ]: non-standard residue; d: D form. The star is where a group is joined. Guan = guanidino group added at N-terminus (guanidation), N=C(N)*; Agp = N=C(N)NC[C@H](N)C(=O)O; Orn = NCCC[C@H](N)C(=O)O; OPr = CCCO*
assayMetric: MIC K. pneumonia 681 (µg/mL)

1) 85 (GNNRPVYIPQPRPPHPRL) [compound 85] : 31.25
2) 146 (Guan-[Orn]NNRPVYIPRPRPPHP[Agp]L-NH2) [compound 146] : 32
3) 147 (Guan-[Orn]NNRPVYIPRPRPPHPRL-OPr) [compound 147] : 8

* * *

Tested on: E. coli 1103
Type: cell-based, Escherichia coli
details: 1103, 20 h
Protocol: The minimal inhibition concentrations (MIC) of the apidaecin-derived peptides and peptide-derivatives were determined by a growth inhibition assay using a serial peptide dilution in sterilized round-bottom 96-well plates (polystyrene, U-bottom, Greiner Bio-One GmbH) with a final volume of 100 μL per well. […] The absorbance was measured at 595 nm using a TECAN micro plate spectrophotometer (Tecan, Germany). All peptides and peptidomimetics were measured in triplicates. […]
Where no end group is shown, it is not given here.
Define the label as class 1 when MIC E. coli 1103 is strictly less than 4 µg/mL and as class 0 in all remaining cases.

1. H-LRPHPPRPQPIYVPRNNG-NH2 [compound 141] : class 0
2. GNNRPVYIPKPRPPHPRI-NH2 [compound 17] : class 1
3. GNNRPVYIPQPRPPHPRL [compound 2] : class 0
4. GNNRPVYIPQPRPPHPRI [compound 1] : class 1
5. GNNRPVYIPRPRPPHPRI-NH2 [compound 14] : class 1

* * *

Tested on: S. enterica subsp. Enterica serovar. typhi G10215 ATCC 700408
Type: cell-based, Salmonella enterica
details: ATCC 700408, 20 h
Where no end group is shown, it is not given here.
assayMetric: MIC S. enterica subsp. Enterica serovar. typhi G10215 ATCC 700408 (µg/mL)

1) H-GNNRPVYLPQPRPPHPRI-NH2 [compound 26] : 4
2) GNNRPVYIPQPRPPHPRL [compound 2] : 2
3) GNNRPVYIPQPRPPHPRI [compound 1] : 2
4) GNNRPVYIPQPRPPHPRL-NH2 [compound 6] : 0.125
5) Ac-KNNRPVYIPKPRPPHPRL-NH2 [compound 22] : 1
6) GNNRPVYIPQPRPPHPRF-NH2 [compound 44] : 4
7) GNNRPVYIPRPRPPHPRI-NH2 [compound 14] : 2
8) GNNRPVYIPRPRPPHPRLV-NH2 [compound 25] : 1

* * *

Recorded MIC E. coli 1103, one value per entry.
Tested on: E. coli 1103
Format: cell-based, Escherichia coli
details: 1103, 20 h
assayMetric: MIC E. coli 1103 (µg/mL)

1. Ac-GNNRPVYIPRPRPPHPRL-NH2 [compound 67] : 3.9
2. H-GNNRPVYIPRPRPPHPRL-NH2 [compound 66] : 3.9
3. H-GNNKPVYIPRPRPPHPRLV-NH2 [compound 68] : 3.9
4. H-GNNRPVYLPQPRPPHPRI-NH2 [compound 26] : 3.91

* * *

Quick reference: MIC S. enterica subsp. Enterica serovar. typhi G10215 ATCC 700408 of the listed items.
System: S. enterica subsp. Enterica serovar. typhi G10215 ATCC 700408
Type: cell-based, Salmonella enterica
details: ATCC 700408, 20 h
Where no end group is shown, it is not given here.
assayMetric: MIC S. enterica subsp. Enterica serovar. typhi G10215 ATCC 700408

1) GNNRPVYIPQPRPPHPL-NH2 [compound 43] : >64 µg/mL
2) KNNRPVYIPKPRPPHPRL-NH2 [compound 21] : 0.25 to 0.5 µg/mL
3) GNNRPVYIPKPRPPHPRI-NH2 [compound 17] : 4 to 8 µg/mL
